# Tested on: RIVA
# ASSAY COMMENT: growth inhibition by drug alone (1 - RLU/untreated control) (fraction); higher = stronger inhibition
# SETUP CONDITIONS: 10 nM; time (day): 6; 177Lu-lilotomab satetraxetan 0 ug/ml
Structures can show the parent of a compound that is named as a salt.
The threshold is inclusive: growth inhibition by drug alone of exactly -0.2 counts as Yes; values below receive No.

Record excerpt, results attached:
COMPOUND: O=C(/C=C/c1cccnc1)NCCCCC1CCN(C(=O)c2ccccc2)CC1
TARGET DESC: RIVA
CATEGORY LABEL: Yes
//
COMPOUND: COc1ccc(COc2cc3oc(=O)c4cc(C(C)O)ccc4c3cc2OC)cc1 (centres undefined)
TARGET DESC: RIVA
CATEGORY LABEL: No
//
COMPOUND: COc1ccc2c(c1)CCC1C2CCC2(C)C(NCCCCCCN3C(=O)C=CC3=O)CCC12 (centres undefined)
TARGET DESC: RIVA
CATEGORY LABEL: Yes
//
COMPOUND: CN1CCN(c2cccc(Nc3nc4c(-c5ccc(S(C)(=O)=O)cc5)cccn4n3)c2)CC1
TARGET DESC: RIVA
CATEGORY LABEL: No
//
COMPOUND: Cc1cccc(-c2nn3c(c2-c2ccnc4ccc(C(N)=O)cc24)CCC3)n1
TARGET DESC: RIVA
CATEGORY LABEL: No
//
COMPOUND: C#Cc1cccc(Nc2ncnc3cc(OC)c(OCCCCCCC(=O)NO)cc23)c1
TARGET DESC: RIVA
CATEGORY LABEL: No

I'd appreciate it if you could say whether COC1=CC(c2cc3ccccc3[nH]2)=N/C1=C\c1[nH]c(C)cc1C [Obatoclax mesylate (GX15-070)] has growth inhibition by drug alone at least equal to -0.2.
No

What would you report for COc1c(C)c2c(c(O)c1C/C=C(\C)CCC(=O)OCCN1CCOCC1)C(=O)OC2 [Mycophenolate mofetil (CellCept)] ?
No

What would you report for `COc1cc2ncnc(Nc3cccc(Br)c3)c2cc1OC` ?
No

What would you report for O=C(CCc1ccc(O)cc1)c1c(O)cc(O)cc1O [Phloretin (Dihydronaringenin)] ?
No

What would you report for `COC(=O)Nc1ccc(-c2nc(N3CCOCC3)c3cnn(C4CCN(C(=O)OC)CC4)c3n2)cc1` ?
Yes

###

Provide the reported growth inhibition by drug alone of each item.
# Tested on: U-2932
# ASSAY COMMENT: growth inhibition by drug alone (1 - RLU/untreated control) (fraction); higher = stronger inhibition
# SETUP CONDITIONS: 10 nM; time (day): 6; 177Lu-lilotomab satetraxetan 0 ug/ml
Numbers only.

Some entries whose results are on file:
SMILES ENTRY: COc1ccc(S(=O)(=O)Nc2cccnc2Nc2ccc(O)cc2)cc1
TARGET DESC: U-2932
VALUE REPORTED: 0.0329
//
SMILES ENTRY: CC(C)C[C@H](NC(=O)CNC(=O)c1cc(Cl)ccc1Cl)B1OC(=O)C(CC(=O)O)(CC(=O)O)O1
TARGET DESC: U-2932
VALUE REPORTED: -0.0316

Now let's try a different one.
Please report the recorded growth inhibition by drug alone for `CN(c1ncccc1CNc1nc(Nc2ccc3c(c2)CC(=O)N3)ncc1C(F)(F)F)S(C)(=O)=O` .
-0.183
